target: Histone deacetylase (Homo sapiens) (UniProt Q13547+O15379+Q9UBN7+Q92769+Q9UQL6+Q8WUI4+Q9BY41+Q96DB2+P56524+Q9UKV0+Q969S8); assay: Inhibition of HDAC in human HeLa cell nuclear extracts using Ac-NH-GGK(Ac)-AMC as substrate after 180 mins by fluorescence assay relative to control; type: protein assay
observable: Imax (%)

C#Cc1cccc(Nc2ncnc3cc(NC(=O)c4ccc(C(=O)Nc5ccccc5N)nc4)ccc23)c1    30
C#Cc1cccc(Nc2ncnc3ccc(OCc4ccc(C(=O)Nc5ccccc5N)cc4)cc23)c1    50
C#Cc1cccc(Nc2ncnc3cc(NC(=O)c4ccc(C(=O)Nc5ccccc5N)cc4)ccc23)c1    30

[A] C#Cc1cccc(Nc2ncnc3ccc(S(=O)(=O)n4ccc(/C=C/C(=O)Nc5ccccc5N)c4)cc23)c1
[B] C#Cc1cccc(Nc2ncnc3cc(NC(=O)c4ccc(C(=O)Nc5ccccc5N)s4)ccc23)c1
Name the one with the greater Imax value, either A or B as given. Respond using the label that marks the chosen record.
A
